Documented OD450 across a set of binders
- target-of-assay: T1, human MSLN-R2-his protein (human, UniProt Q13421 391-486)
- T1 construct: it is put last here; also called human MSLN-R2 protein; hMSLN-R2-his; not shown: His tag
- T1 sequence (Q13421 other isoform, or with tags, fused parts or gaps): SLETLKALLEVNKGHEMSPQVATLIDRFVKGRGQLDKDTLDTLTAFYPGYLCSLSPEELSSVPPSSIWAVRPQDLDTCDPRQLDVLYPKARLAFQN
- test-description: ELISA on coated antigen, antibody 2 nM

binder: S009-F7.6.17 (antibody, human IgG1, kappa, V domains shown, Human-murine chimeric antibody, human IgG1 heavy and kappa light constant regions) VH: QVQLQQSGAELARPGASVKMSCKASGYTFTTYTMHWVKQRPGQGLEWIGYISPTGDFTKYNQKFKDKATLTTDKSSNTAFMQLSSLTSEDSAVYYCARWNGTVWFAYWGQGTLVTVSA VL: DIVMTQSQKFMSTSVGDRVTVTCKASQALGTNVAWYQQKPGQSPKVLIYSASYRYSGVPYRFAGGGSGTDFTLTITNVQSEDLAEYFCQQYNNYPLTFGAGTKLELKR
unit-label: OD
OD450: 0.05
//
binder: S009-F7.61.21 (antibody, human IgG1, kappa, V domains shown, Human-murine chimeric antibody, human IgG1 heavy and kappa light constant regions) VH: DVQLQQSGPELVEPGASVRIPCKAAGHTFTDYNVDWVKQSHGQSLEWIGDVNPNTDGAIYNQKFEGKATLTVDTSSSTAYMELRSLTSEDTAVYFCARRRLGQGGFDSWGQGTTLTVSS VL: QVVLTQSPAIMSASPGEKVTLTCGASSSLISKYLYWYQQKPGSSPKLWIYSTSNLASGVPARFSGSGSGTSYSLTISSMEAEDAASYFCHQWSSYPYTFGGGTKVEIKR
unit-label: OD
OD450: 0.05

Value source: patent US20250250357A1
